- system_tested: HLA-A*25:01
- run_description: IEDB peptide-MHC binding, purified MHC/competitive/fluorescence; bounds were set here for any values at or beyond the usual limits of such assays
- measurement_conditions: source organism: Monodelphis domestica
measured_quantity: IC50

seq_text | measured_quantity | result
FLLPILSQIYT | IC50 | ≥ 20 µM

###

- system_tested: HLA-A*02:19
- run_description: IEDB peptide-MHC binding, purified MHC/competitive/fluorescence; filed as Kd, often an IC50 or EC50 that approximates it; bounds were set here for any values at or beyond the usual limits of such assays
- measurement_conditions: source organism: Coxiella burnetii RSA 331

seq_text | system_tested | Kd
HMNKLPLAK | HLA-A*02:19 | ≥ 20 µM
